Assay: PSAC antagonists in infected red cells, primary screen, cell-based, P. falciparum Indochina, OD700, 1 h (AID 1154)
Details: P. falciparum Indochina infected RBC osmotic lysis, called active from +8 up or from −8 down
Calls of active or inactive are those of the source.
Lab note: assign the record to one of y for active, n for inactive

Query block: In this assay, the call recorded for C/C=C/[C@@H](CCn1cc(CCO[Si](C(C)C)(C(C)C)C(C)C)nn1)[Si](C)(C)c1ccc(OC)cc1 was what?
Result block: n

Query block: In this assay, the call recorded for Cc1ccc(N2C(=O)c3ccccc3[C@](C)(C(=O)NC3CC3)[C@@H]2c2ccc(CO)cc2)nc1 was what?
Result block: n

Query block: In this assay, the call recorded for NC(=O)N1C(=O)C2C(C1=O)C1C=C(c3ccc(CO)cc3)C2C(C2CC2)N1Cc1cc2c(cc1Br)OCO2 (stereo not drawn) was what?
Result block: y

Query block: In this assay, the call recorded for CC(C)C[C@@H]1NC(=O)[C@@H]2C[C@H](C(=O)NCCCCCNC(=O)CS)[C@H](c3cccc(OCCO)c3)N2C1=O was what?
Result block: n

Query block: In this assay, the call recorded for C#CCOc1ccc(C[C@H]2C(=O)O[C@H](Cc3ccccc3)[C@H](/C=C/C3CC3)N2CC#C)cc1 was what?
Result block: n

Query block: In this assay, the call recorded for CC(C)(C)OC(=O)CC[C@@]1(C(=O)NCc2ccccc2)N=C(c2ccc(OCCCO)cc2)O[C@@H]1c1ccccc1CN=[N+]=[N-] was what?
Result block: y

Query block: In this assay, the call recorded for C=C(COC)C(=O)CC[C@H](OC(=O)c1cccnc1)c1cccc(OCCO)c1 was what?
Result block: y

Query block: In this assay, the call recorded for C=CC[C@@]1(C(=O)NCc2ccccc2)N=C(c2ccc(OCCCO)cc2)O[C@@H]1c1ccccc1 was what?
Result block: y

* * *

So I've got a bunch of compounds here, and I need their z-score values.
Test: modulators of HCV replicon luciferase signal, primary screen, HCV replication inhibitor project, Huh7 cells, luciferase reporter (AID 1109);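 also: huh7 hepatoma cells harbouring a luciferase neomycin HCV replicon reporter; luciferase luminescence as measure of HCV replicon replication; test concentration not given here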
Conditions: 48 h, higher = more signal
Just the number, please, no unit attached.

Query block: Provide one value: measured z-score of COCCOC(=O)N1C(=O)[C@@]2(c3cc(C#CC4(O)CCCCCC4)ccc31)[C@H](c1ccc(O)cc1)N1[C@H](c3ccccc3)[C@H](c3ccccc3)OC(=O)[C@H]1[C@@H]2C(N)=O
Result block: -0.0511

Query block: Provide one value: measured z-score of Cc1ccc(S[C@]2(C(=O)NCC(C)C)CC(=O)N(C(C)C)[C@@H]2c2ccc(CO)cc2)cc1
Result block: -0.725

Query block: Provide one value: measured z-score of C=CCN1C(=O)[C@@]2(O[C@@H](CCO)[C@H]([Si](C)(C)c3ccc(OC)cc3)[C@H]2C)c2cc(N3C(=O)c4cccc5cccc3c45)ccc21
Result block: -5.15

Query block: Provide one value: measured z-score of COCCCNC(=O)[C@@]1(C)c2ccccc2C(=O)N(Cc2cc(F)cc(C(F)(F)F)c2)[C@H]1c1ccc(CO)cc1
Result block: 0.67

Query block: Provide one value: measured z-score of CC(C)C(=C=CC[C@H](O)c1ccc(OCCO)cc1)C[C@H](O)COCc1ccccc1
Result block: -1.87

Query block: Provide one value: measured z-score of CC(C)N1C(=O)c2ccccc2[C@@H](C(=O)NCc2ccccc2)[C@@H]1c1ccc(CO)cc1
Result block: 0.313

Query block: Provide one value: measured z-score of O=C(N1CCCCC1)[C@@]1(Cc2ccccc2)N=C(c2ccc(OCCCO)cc2)O[C@H]1c1ccccc1
Result block: -2.94

Query block: Provide one value: measured z-score of CCCCC(=C=CC[C@@H](O)c1ccc(OCCO)cc1)C[C@@H](O)c1cc(Cl)cc(Cl)c1O
Result block: -1.99

Query block: Provide one value: measured z-score of CCCC[C@@H](O)C1=C(C)C[C@H]2C(=O)N(C)C(=O)[C@H]2[C@H]1CO
Result block: 0.739

Query block: Provide one value: measured z-score of CC(C)(C)OC(=O)CC[C@@]1(C(=O)N2CCOCC2)N=C(c2ccc(OCCCO)cc2)O[C@@H]1c1ccccc1
Result block: -0.0126

Query block: Provide one value: measured z-score of CC(C)C(CO)N1C(=O)[C@@H]2[C@H]3C(=O)OCC=C[C@H]3OC23C=CCN(Cc2ccccc2)C(=O)[C@@H]13 (some centres undefined)
Result block: -0.498

Query block: Provide one value: measured z-score of CC(CO)N1C(=O)[C@@H]2C3C(=O)OCCC/C=C\[C@H]3OC23C=CCN(Cc2ccccc2)C(=O)[C@@H]13 (some centres undefined)
Result block: -0.159

Query block: Provide one value: measured z-score of COc1ccc([Si](C)(C)[C@H]2[C@H](CC(=O)N(CCO)Cc3ccccc3)O[C@@]3(C(=O)N(Cc4ccc(N5CCOC5=O)cc4)c4ccccc43)[C@@H]2C)cc1
Result block: -2.94

Query block: Provide one value: measured z-score of O=C(NC1CC1)[C@@H]1c2ccccc2C(=O)N(Cc2ccccc2C(F)(F)F)[C@H]1c1ccc(CO)cc1
Result block: -0.639

Query block: Provide one value: measured z-score of COC(=O)C1=CC(c2ccc(CO)cc2)=CC(c2cccs2)N(C)C=C1C(=O)OC (centres undefined)
Result block: -0.176

Query block: Provide one value: measured z-score of COc1ccc(C#Cc2ccc3c(c2)[C@]2(C(=O)N3)[C@H](c3ccc(O)cc3)N3[C@H](c4ccccc4)[C@H](c4ccccc4)OC(=O)[C@H]3[C@@H]2C(N)=O)cc1
Result block: -1.68

Query block: Provide one value: measured z-score of COc1ccc(C(=O)Nc2cccc(CN3C(=O)[C@@]4(O[C@@H](CCO)[C@H]([Si](C)(C)c5ccc(OC)cc5)[C@H]4C)c4ccccc43)c2)cc1
Result block: -5.15

Query block: Provide one value: measured z-score of C=CC[C@]1(C(=O)N(C)C)N=C(c2ccc(OCCCO)cc2)O[C@H]1c1ccccc1CN=[N+]=[N-]
Result block: -2.44

Query block: Provide one value: measured z-score of COc1ccc([Si](C)(C)[C@@H]2[C@@H](CC(=O)N3CCC[C@H]3CO)O[C@]3(C(=O)N(Cc4ccc(N5CCC5=O)cc4)c4ccccc43)[C@H]2C)cc1
Result block: -1.96

Query block: Provide one value: measured z-score of COCCOC(=O)N1C(=O)[C@@]2(c3cc(C#CC4(O)CCCCCC4)ccc31)[C@H](C(=O)NC[C@H](O)c1ccccc1)[C@H]1C(=O)O[C@H](c3ccccc3)[C@H](c3ccccc3)N1[C@@H]2c1ccccc1OCCO
Result block: -2.56

Query block: Provide one value: measured z-score of C=CCC(OC(C)=O)[C@@H]1[C@@H](N(Cc2cc3ccccc3o2)C(=O)c2ccc(-c3ccccc3)cc2)c2cc(OCCCO)ccc2N1C(=O)c1ccc(-c2ccccc2)cc1 (some centres undefined)
Result block: -0.366

Query block: Provide one value: measured z-score of CCOC(=O)C[C@H]1[C@H](OC(=O)Cc2ccc3c(c2)OCO3)[C@@H](NC(=O)c2ccc3ccccc3c2)c2cc(OCCCO)ccc2N1C(=O)c1ccc2ccccc2n1
Result block: -1.43

Query block: Provide one value: measured z-score of COc1c(C)cc(-c2cc3c(c(CCc4ccccc4)n2)[Si](C(C)C)(C(C)C)OC3)cc1C
Result block: 0.336

Query block: Provide one value: measured z-score of CC(C)(C)OC(=O)CC[C@@]1(C(=O)NCc2ccccc2)N=C(c2ccc(OCCCO)cc2)O[C@@H]1c1ccccc1CN=[N+]=[N-]
Result block: -2.28

Query block: Provide one value: measured z-score of C=CCNC(=O)[C@H]1[C@@H]2C(=O)O[C@@H](c3ccccc3)[C@@H](c3ccccc3)N2[C@@H](c2ccc(OCCO)cc2)[C@]12C(=O)Nc1ccc(C#CCCO)cc12
Result block: -0.735

Query block: Provide one value: measured z-score of C[C@@H](OCc1ccccc1)C1NC(=O)[C@@]23C(=O)N[C@@H](Cc4ccccc4)C2[C@H](C)[C@@]2(C)O[C@H]2C3/C=C/C/C=C\CNC(=O)[C@@H]2CCCN2C1=O (some centres undefined)
Result block: -1.06

Query block: Provide one value: measured z-score of C=C(COC)C(=O)CC[C@H](OC(=O)c1cccnc1)c1cccc(OCCO)c1
Result block: -0.87

Query block: Provide one value: measured z-score of CCCNC(=O)[C@@]1(Sc2ccc(C)cc2)CC(=O)N(Cc2cc(C(F)(F)F)cc(C(F)(F)F)c2)[C@@H]1c1ccc(CO)cc1I
Result block: -1.41

Query block: Provide one value: measured z-score of COc1ccc([Si](C)(C)[C@H]2[C@H](CC(=O)N(CCO)Cc3ccccc3)O[C@@]3(C(=O)N(Cc4ccc(N5CCC5=O)cc4)c4ccccc43)[C@@H]2C)cc1
Result block: -3.87
